System: proteases in Pelophylax esculentus skin secretion
Assay type: in vitro ADME
Condition Label: sample 5: aqueous P. esculentus skin secretion, PMSF 1.0 mM (in DMSO); LC-HRMS; all forms = 100%; one frog per sample
Bridges are numbered along the chain shown (N, C = ends). Where no end group is shown, it is not given here.
Overview of recorded Intact, % for various substances
# output: bare number, implied unit %

For GXLDSLKNFAKDAAGILLKKASCKLSGQC-OH (disulfide) [Brev 2Ra, Brevinin 2Ra, natural disulfide skin peptide of Pelophylax esculentus, brevinin 2 family, 29 aa] the substance record lists Intact, % as 85.99

For GXFSKXAGKKXKNLXISGXKSVGKEVGMDVVRTGIDIAGCKIKGEC-OH (disulfide) [Escul 1R, Esculentin 1R, natural disulfide skin peptide of Pelophylax esculentus, esculentin 1 family, 46 aa] the substance record lists Intact, % as 0.74

For GIFSKLGRKKIKNLLISGLKNVGKEVGMDVVRTGIDIAGCKIKGEC (disulfide 40-46) [Escul 1, Esculentin 1] the substance record lists Intact, % as 8.10

For GXLDSLKNLAKNAAQILLNKASCKLSGQC-OH (disulfide) [Brev 2Rd, Brevinin 2Rd, natural disulfide skin peptide of Pelophylax esculentus, brevinin 2 family, 29 aa] the substance record lists Intact, % as 20.84

For FFPAFLKVAAKVVPSXXCSITKKC-OH (disulfide) [Brev 1LE, Brevinin 1LE, natural disulfide skin peptide of Pelophylax esculentus, brevinin 1 family, 24 aa] the substance record lists Intact, % as 10.26

For GXLSTLKNVAKTAGKGALQSLLNAASCKLSGQC-OH (disulfide) [Brev 2L, Brevinin 2L, natural disulfide skin peptide of Pelophylax esculentus, brevinin 2 family, 33 aa] the substance record lists Intact, % as 19.49
